- TEST_PROTOCOL: Solubility test of ionic liquid in fluorine-based solvent VERTREL XF
- MEASUREMENT_CONTEXT: VERTREL XF [CF3(CHF)2CF2CF3], 25° C., ultrasonic 5 minutes, left 1 day, visual

COMPOUND: CCCCCCCCCCCCCCCCCCn1cc[n+](CCCCCCCCC[n+]2ccn(CCCCCCCCCCCCCCCCCC)c2)c1.O=S(=O)([N-]S(=O)(=O)C(F)(F)C(F)(F)C(F)(F)C(F)(F)F)C(F)(F)C(F)(F)C(F)(F)C(F)(F)F.O=S(=O)([N-]S(=O)(=O)C(F)(F)C(F)(F)C(F)(F)C(F)(F)F)C(F)(F)C(F)(F)C(F)(F)C(F)(F)F [Comp. Ex. 10A, reference compound]
Solubility to fluorine-based solvent: less than 0.1% by mass

COMPOUND: CCCCCCCCCCCCCCCCCCN1CCCN2CCCN=C12.O=S1(=O)NS(=O)(=O)C(F)(F)C(F)(F)C1(F)F [Comp. Ex. 4A, reference compound]
Solubility to fluorine-based solvent: less than 0.1% by mass

COMPOUND: CCCCCCCCCCCCCCCCCCN1CCCC1.O=S1(=O)NS(=O)(=O)C(F)(F)C(F)(F)C1(F)F [Comp. Ex. 6A, reference compound]
Solubility to fluorine-based solvent: less than 0.1% by mass

###

- TEST_PROTOCOL: Thermal stability measurement (TG/DTA weight reduction temperature)
- MEASUREMENT_CONTEXT: TG/DTA, air 200 mL/min, 10° C./min, 30° C. to 600° C.

COMPOUND: CCCCCCCCCCCCCCCCCCN1CCCC1.O=S1(=O)NS(=O)(=O)C(F)(F)C(F)(F)C1(F)F [Comp. Ex. 6A, reference compound]
Weight reduction temperature 10% (°C): 358.4

COMPOUND: CCCCCCCCCCCCCCCCCCC1CCCCN2CCCN=C12.O=S1(=O)NS(=O)(=O)C(F)(F)C(F)(F)C1(F)F (stereo not drawn) [Comp. Ex. 1A, reference compound]
Weight reduction temperature 10% (°C): 384.1

COMPOUND: CCCCCCCCCCCCCCCCCCn1cc[n+](CCC[n+]2ccn(CCCCCCCCCCCCCCCCCC)c2)c1.O=S(=O)([N-]S(=O)(=O)C(F)(F)C(F)(F)C(F)(F)C(F)(F)F)C(F)(F)C(F)(F)C(F)(F)C(F)(F)F.O=S(=O)([N-]S(=O)(=O)C(F)(F)C(F)(F)C(F)(F)C(F)(F)F)C(F)(F)C(F)(F)C(F)(F)C(F)(F)F
Weight reduction temperature 10% (°C): 381.9

COMPOUND: CCCCCCCCCCCCCCCCCCn1cc[n+](CCCCCCCCC[n+]2ccn(CCCCCCCCCCCCCCCCCC)c2)c1.O=S(=O)([N-]S(=O)(=O)C(F)(F)C(F)(F)C(F)(F)C(F)(F)F)C(F)(F)C(F)(F)C(F)(F)C(F)(F)F.O=S(=O)([N-]S(=O)(=O)C(F)(F)C(F)(F)C(F)(F)C(F)(F)F)C(F)(F)C(F)(F)C(F)(F)C(F)(F)F [Comp. Ex. 10A, reference compound]
Weight reduction temperature 10% (°C): 381.0

COMPOUND: CCCCCCCCCCCCCCCCCCN1CCCN2CCCN=C12.O=S1(=O)NS(=O)(=O)C(F)(F)C(F)(F)C1(F)F [Comp. Ex. 4A, reference compound]
Weight reduction temperature 10% (°C): 376.2

COMPOUND: CCCCCCCCCCCCCCCCCCC1CCCCN2CCCN=C12.O=S(=O)(NS(=O)(=O)C(F)(F)C(F)(F)C(F)(F)C(F)(F)F)C(F)(F)C(F)(F)C(F)(F)C(F)(F)F
Weight reduction temperature 10% (°C): 378.2

COMPOUND: CCCCCCCCCCCCCCCCCC[n+]1ccn(CCCC)c1.O=S(=O)([N-]S(=O)(=O)C(F)(F)C(F)(F)C(F)(F)C(F)(F)F)C(F)(F)C(F)(F)C(F)(F)C(F)(F)F [Comp. Ex. 8A, reference compound]
Weight reduction temperature 10% (°C): 367.0

COMPOUND: C[n+]1ccn(CCC(F)(F)C(F)(F)C(F)(F)C(F)(F)C(F)(F)C(F)(F)C(F)(F)C(F)(F)F)c1.O=S(=O)([N-]S(=O)(=O)C(F)(F)C(F)(F)C(F)(F)C(F)(F)F)C(F)(F)C(F)(F)C(F)(F)C(F)(F)F [Ex. 9A]
Weight reduction temperature 10% (°C): 365.5

COMPOUND: CCCCCCCCCCCCCCCCCC[N+]1=C2CCCCCN2CCC1.O=S(=O)([N-]S(=O)(=O)C(F)(F)C(F)(F)C(F)(F)C(F)(F)F)C(F)(F)C(F)(F)C(F)(F)C(F)(F)F [Ex. 2A]
Weight reduction temperature 10% (°C): 372.9
